# Tested on: MT4
# RUN DESCRIPTION: Cytotoxicity against human MT4 cells after 96 hrs by MTT assay
# Assay type: cell-based
# EXPERIMENTAL CONTEXT: mt4, 96 h
What CC50 was measured for each of the following?

Q: Give me measured CC50, please, for this molecule: FC(F)(F)c1cccc(N/N=N/c2ccccc2)c1
Result: > 100 µM

Q: Please give measured CC50 of the following entry: Brc1cccc(/N=N/N2CCCCC2)c1
Result: > 100 µM

Q: Identify measured CC50 corresponding to c1ccc(/N=N/N2CCCCC2)cc1
Result: > 100 µM

Q: Fill in CC50 for record CN(Cc1ccccc1)/N=N/c1ccccc1
Result: ≥ 100 µM

* * *

For each of the molecules below, state its CC50.
# RUN DESCRIPTION: Cytotoxicity against hamster BHK21 cells assessed as reduction in cell viability after 48 to 96 hrs by MTT assay
# Assay type: cell-based, Mesocricetus auratus, BHK-21
# EXPERIMENTAL CONTEXT: bhk-21

Q: Note down CC50 recorded for Clc1cccc(/N=N/N2CCCC2)c1
Result: > 100 µM

Q: Identify measured CC50 corresponding to FC(F)(F)c1cccc(/N=N/c2ccc(NC[C@@H]3CCCN4CCCC[C@H]34)c3c2CCCC3)c1
Result: 14 µM

Q: Quick one: give measured CC50 for O=c1cnn([C@@H]2O[C@H](CO)[C@@H](O)[C@H]2O)c(=O)[nH]1
Result: > 100 µM

Q: Return reported CC50. Input molecule: Cc1ccc(/N=N/N(C)c2ccccc2)cc1
Result: > 100 µM

Q: For the molecule CN(/N=N/c1cccc([N+](=O)[O-])c1)c1ccccc1 , report CC50.
Result: > 100 µM

Q: Give a short answer stating reported CC50 for CN1CCN(/N=N/c2ccccc2)CC1 .
Result: 70 µM

Q: Annotate the molecule c1ccc(/N=N/c2ccc(NC[C@@H]3CCCN4CCCC[C@H]34)c3c2CCCC3)cc1 with its measured CC50.
Result: > 100 µM

Q: Return the recorded CC50 value; entry: CN(/N=N/c1ccccc1)c1ccccc1
Result: > 100 µM

Q: Identify CC50 associated with the molecule Fc1ccc(F)c(/N=N/Nc2cc(F)ccc2F)c1
Result: > 100 µM

Q: Please report the measured CC50 for CN(Cc1ccccc1)/N=N/c1ccccc1
Result: > 100 µM

Q: Provide measured CC50 value, entry: O=C1CCN(/N=N/c2ccccc2)CC1
Result: 90 µM

Q: Give me measured CC50, please, for this molecule: O=c1cccc2n1CC1CC2CN(/N=N/c2ccc(Cl)cc2)C1 (stereo not drawn)
Result: 85 µM

Q: In one line, give reported CC50 of the entry Clc1ccc(/N=N/N2CCCC2)cc1 .
Result: > 100 µM

* * *

# System: Vero
# RUN DESCRIPTION: Cytotoxicity against african green monkey Vero 76 cells by crystal violet staining
# Type: cell-based
# EXPERIMENTAL CONTEXT: chlorocebus sabaeus, vero
RECORDED METRIC: CC50

Q: Using known records, supply CC50 for c1ccc(/N=N/N2CCCCC2)cc1
Result: > 100 µM

Q: Provide CC50 value for the following compound: Brc1ccc(/N=N/N2CCCCC2)cc1
Result: > 100 µM

Q: Tell me measured CC50 for c1ccc(/N=N/N2CCCC2)cc1 please.
Result: > 100 µM

Q: Report CC50 for FC(F)(F)c1cccc(/N=N/N2CCCC2)c1
Result: > 100 µM

Q: For the compound Clc1cccc(/N=N/N2CCCCC2)c1 , report CC50.
Result: > 100 µM

Q: Report CC50 for Brc1ccc(/N=N/N2CCCC2)cc1
Result: ≥ 100 µM

Q: Could you please provide reported CC50 for Clc1cccc(/N=N/N2CCCC2)c1 ? Thanks!
Result: ≥ 100 µM

Q: # return recorded CC50 for entry c1ccc(/N=N/N2CCN(c3ccccc3)CC2)cc1
Result: ≥ 100 µM

Q: Return CC50 for the following compound: Clc1ccc(/N=N/N2CCCCC2)cc1
Result: > 100 µM

Q: Report CC50 for Clc1ccc(/N=N/N2CCCC2)cc1
Result: > 100 µM

Q: Please list CC50 recorded for the compound Fc1ccc(F)c(/N=N/Nc2cc(F)ccc2F)c1
Result: ≥ 100 µM

Where these numbers come from: ChEMBL document CHEMBL1154067
